Value source: ChEMBL document CHEMBL1133520

# assayExplanation: Cmax values of the compound
# Format: ADME, organism-based
# protocolConditions: in vivo
Strictly below 2000 nM in Cmax: 1 (yes). Otherwise: 0 (no).

Query :: Find out if reported Cmax for "N=C(N)c1ccc2ncn(CC(=O)Nc3ccc(-c4ccccc4S(N)(=O)=O)cc3)c2c1" is less than 2000 nM
Result :: 0 (no)

Query :: Please indicate whether the reported Cmax of "N=C(N)c1ccc2[nH]cc(CC(=O)Nc3ccc(-c4ccccc4S(N)(=O)=O)cc3Cl)c2c1" is strictly below 2000 nM.
Result :: 1 (yes)

Query :: # strict comparison: is reported Cmax < 2000 nM? input = "N=C(N)c1ccc2[nH]cc(CC(=O)Nc3ccc(-c4ccccc4S(N)(=O)=O)cn3)c2c1"
Result :: 0 (no)

Query :: Find out if reported Cmax for "N=C(N)c1ccc2[nH]cc(CC(=O)Nc3ccc(-c4ccccc4S(N)(=O)=O)cc3Br)c2c1" is less than 2000 nM
Result :: 1 (yes)

Query :: Input "N=C(N)c1ccc2[nH]cc(CC(=O)Nc3ccc(-c4ccccc4S(N)(=O)=O)cc3F)c2c1" ; condition: Cmax strictly below 2000 nM. Does it hold?
Result :: 1 (yes)

----------
# assayExplanation: plasma clearance in rabbit
observable: clearance (mL/min/kg)
Number only, in mL/min/kg; omit the unit.

Query :: Consider the molecule shown here: "N=C(N)c1ccc2ncn(CC(=O)Nc3ccc(-c4ccccc4S(N)(=O)=O)cc3)c2c1" What is its recorded clearance?
Result :: 73.3

----------
Answer each item with its documented Ki.
Lab book: enter the figure in nM, no units written.

Query :: Coagulation factor X (Homo sapiens) / Ki / "N=C(N)c1ccc2[nH]cc(CC(=O)Nc3ccc(-c4ccccc4S(N)(=O)=O)cc3I)c2c1" : value?
Result :: 0.6

Query :: Fill in the recorded Ki for this compound, with Coagulation factor X (Homo sapiens) as test system: "N=C(N)c1ccc2[nH]cc(CC(=O)Nc3ccc(-c4ccccc4S(N)(=O)=O)cc3Cl)c2c1"
Sequence (P00742 41-179 limits assumed): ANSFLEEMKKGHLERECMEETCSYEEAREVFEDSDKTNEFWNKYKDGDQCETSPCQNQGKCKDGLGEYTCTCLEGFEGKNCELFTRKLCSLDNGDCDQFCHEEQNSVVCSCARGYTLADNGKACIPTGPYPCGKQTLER
Sequence (P00742 235-488 limits assumed): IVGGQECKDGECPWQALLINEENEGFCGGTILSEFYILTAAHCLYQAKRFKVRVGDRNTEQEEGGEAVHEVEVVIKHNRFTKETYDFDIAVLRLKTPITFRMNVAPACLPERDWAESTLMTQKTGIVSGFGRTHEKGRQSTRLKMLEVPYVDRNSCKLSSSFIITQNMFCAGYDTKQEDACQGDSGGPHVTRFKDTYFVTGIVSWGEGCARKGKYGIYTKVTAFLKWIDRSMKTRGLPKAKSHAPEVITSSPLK
Result :: 0.7

Query :: // map "N=C(N)c1ccc2ncn(CC(=O)c3ccc(-c4ccccc4S(N)(=O)=O)cc3)c2c1" to recorded Ki (system: Coagulation factor X (Homo sapiens))
Result :: 240

Query :: What reported Ki corresponds to "CN(C(=O)Cc1c[nH]c2ccc(C(=N)N)cc12)c1ccc(-c2ccccc2S(N)(=O)=O)cc1" on Coagulation factor X (Homo sapiens)?
Result :: 41

Query :: Look up Ki with Coagulation factor X (Homo sapiens) for this compound: "CCCNS(=O)(=O)c1ccccc1-c1ccc(NC(=O)Cc2c[nH]c3ccc(C(=N)N)cc23)cc1"
Result :: 8

Query :: Fill in the recorded Ki for this compound, with Coagulation factor X (Homo sapiens) as test system: "N=C(N)c1ccc2cnn(CC(=O)Nc3ccc(-c4ccccc4S(N)(=O)=O)cn3)c2c1"
Result :: 3.1

Query :: Short answer please: Ki, Coagulation factor X (Homo sapiens), entry "Cn1cc(CC(=O)Nc2ccc(-c3ccccc3S(N)(=O)=O)cn2)c2cc(C(=N)N)ccc21"
Result :: 89

Query :: Return Ki measured with Coagulation factor X (Homo sapiens) given this compound: N=C(N)c1ccc2c(c1)C(CC(=O)Nc1ccc(-c3ccccc3S(N)(=O)=O)cc1)CN2 (single isomer, unassigned; (+))
Result :: 0.71

----------
# measuredOn: Coagulation factor X (Oryctolagus cuniculus, UniProt O19045)
# Sequence (O19045 41-180 limits assumed): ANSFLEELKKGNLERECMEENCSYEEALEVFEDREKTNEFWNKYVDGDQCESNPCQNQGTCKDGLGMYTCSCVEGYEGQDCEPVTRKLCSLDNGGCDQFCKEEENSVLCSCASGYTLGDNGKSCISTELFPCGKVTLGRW
# Sequence (O19045 233-490 limits assumed): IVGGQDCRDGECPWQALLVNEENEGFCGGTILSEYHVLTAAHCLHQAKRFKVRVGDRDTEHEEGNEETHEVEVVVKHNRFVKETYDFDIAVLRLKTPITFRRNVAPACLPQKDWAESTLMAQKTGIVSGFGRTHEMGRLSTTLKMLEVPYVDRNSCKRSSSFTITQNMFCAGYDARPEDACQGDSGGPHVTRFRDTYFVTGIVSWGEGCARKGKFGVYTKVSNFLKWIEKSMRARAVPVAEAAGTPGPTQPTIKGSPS
# assayExplanation: Binding affinity against Coagulation factor X from rabbit purified enzyme
observable: pKi
Quick note: pKi values are minus log10 of concentrations in mol/L.

Query :: pKi for "N=C(N)c1ccc2[nH]cc(CC(=O)Nc3ccc(-c4ccccc4S(N)(=O)=O)cn3)c2c1" ?
Result :: 9.03

Query :: Looking for the measured pKi of "N=C(N)c1ccc2[nH]cc(CC(=O)Nc3ccc(-c4ccccc4S(N)(=O)=O)cc3Cl)c2c1" , can you help?
Result :: 9.10

Query :: Value lookup for pKi; key = "N=C(N)c1ccc2[nH]cc(CC(=O)Nc3ccc(-c4ccccc4S(N)(=O)=O)cc3Br)c2c1"
Result :: 9.05
